Measured values drawn from ChEMBL document CHEMBL3421550 for this set.

property: Kd (µM)
Write the number in µM without appending the unit.

The measured Kd that O=C(O)c1cc(-c2ccc(CNC(=S)c3ccc(-c4nnn[nH]4)cc3)cc2)n(-c2ccc(Cl)c(Cl)c2)n1 showed for Replication protein A 70 kDa DNA-binding subunit (Homo sapiens) is 2.2

I looked up COc1ccc(-c2cc(C(=O)O)nn2-c2cccc(Br)c2)cc1 and its Kd for Replication protein A 70 kDa DNA-binding subunit (Homo sapiens) was 140

Record O=C(O)c1cc(-c2ccc(CNC(=S)c3ccc(Br)cc3)cc2)n(-c2ccc(Cl)c(Cl)c2)n1 has Replication protein A 70 kDa DNA-binding subunit (Homo sapiens) Kd equal to 15

Fill in: Replication protein A 70 kDa DNA-binding subunit (Homo sapiens) Kd for O=C(O)c1ccc(-c2cc(C(=O)O)nn2-c2ccc(Cl)c(Cl)c2)cc1 = 59

Sample Cc1ccc(-c2cc(C(=O)O)nn2-c2ccc(Cl)c(Cl)c2)cc1 , system: Replication protein A 70 kDa DNA-binding subunit (Homo sapiens). Its Kd is 72

Known value: Replication protein A 70 kDa DNA-binding subunit (Homo sapiens) Kd of the compound O=C(O)c1cc(-c2ccccc2)n(-c2ccc(Cl)c(Cl)c2)n1 equals 123

====

Measurement record for Replication protein A 70 kDa DNA-binding subunit (Homo sapiens); quantity recorded: Kd.
Numbers only here, please. The scale is µM.

For O=C(O)c1cc(-c2ccc(CNC(=S)c3ccc(-c4nc(=O)o[nH]4)cc3)cc2)n(-c2ccc(Cl)c(Cl)c2)n1 on Replication protein A 70 kDa DNA-binding subunit (Homo sapiens), measured Kd was 9.3

Assay Replication protein A 70 kDa DNA-binding subunit (Homo sapiens), sample O=C(O)c1cc(-c2ccc(Cl)cc2)n(-c2ccc(Cl)c(Cl)c2)n1 , Kd read: 67

Replication protein A 70 kDa DNA-binding subunit (Homo sapiens) Kd of O=C(NCc1ccc(-c2ccc(C(=O)O)o2)cc1Cl)c1ccc(-c2cc(C(=O)O)nn2-c2ccc(Cl)c(Cl)c2)cc1 is 9.4

Recorded Kd for O=C(O)c1cc(-c2ccc(CNS(=O)(=O)c3ccc(OC(F)(F)F)cc3)cc2)n(-c2ccc(Cl)c(Cl)c2)n1 on Replication protein A 70 kDa DNA-binding subunit (Homo sapiens) was 56

Observed Kd on Replication protein A 70 kDa DNA-binding subunit (Homo sapiens), entry O=C(O)c1cccc(-c2cc(C(=O)O)nn2-c2ccc(Cl)c(Cl)c2)c1 , equals 129

Lab note: molecule O=C(O)c1cc(-c2ccc(CNC(=S)c3ccc(-c4ccc(C(=O)O)o4)cc3)cc2)n(-c2ccc(Cl)c(Cl)c2)n1 tested on Replication protein A 70 kDa DNA-binding subunit (Homo sapiens); recorded Kd was 0.55

Note to self: Kd of O=C(O)c1cc(-c2ccc(C(=S)NCc3cccc(-c4ccc(C(=O)O)o4)c3)cc2)n(-c2ccc(Cl)c(Cl)c2)n1 with Replication protein A 70 kDa DNA-binding subunit (Homo sapiens) was 2.5

Query O=C(NCc1ccc(-c2cc(C(=O)O)nn2-c2ccc(Cl)c(Cl)c2)cc1)c1ccccc1 on Replication protein A 70 kDa DNA-binding subunit (Homo sapiens); Kd returned: 90

Recorded Kd for O=C(O)c1cc(-c2ccc(CNS(=O)(=O)c3ccccc3)cc2)n(-c2ccc(Cl)c(Cl)c2)n1 on Replication protein A 70 kDa DNA-binding subunit (Homo sapiens) was 70

Considering O=C(O)c1cc(-c2ccc(C(=S)NCc3ccc(-c4ccc(C(=O)O)o4)cc3)cc2)n(-c2ccc(Cl)c(Cl)c2)n1 , its Kd with Replication protein A 70 kDa DNA-binding subunit (Homo sapiens) was recorded as 1.5

Lab note: molecule O=C(O)c1cc(-c2ccc(C(=S)NCc3ccc(-c4ccc(C(=O)O)o4)cc3Cl)cc2)n(-c2ccc(Cl)c(Cl)c2)n1 tested on Replication protein A 70 kDa DNA-binding subunit (Homo sapiens); recorded Kd was 0.48

Bench note, Replication protein A 70 kDa DNA-binding subunit (Homo sapiens): entry O=C(O)c1cc(-c2ccc(O)cc2)n(-c2ccc(Cl)c(Cl)c2)n1 , its Kd = 104

// assay Replication protein A 70 kDa DNA-binding subunit (Homo sapiens), entry COc1ccc(CNC(=S)c2ccc(-c3cc(C(=O)O)nn3-c3ccc(Cl)c(Cl)c3)cc2)cc1 , Kd value = 23

# Kd measured on Replication protein A 70 kDa DNA-binding subunit (Homo sapiens) for item CC(=O)N(Cc1ccc(-c2ccc(C(=O)O)o2)cc1)Cc1cccc(-c2cc(C(=O)O)nn2-c2ccc(Cl)c(Cl)c2)c1 = 8.2

Param item: COc1ccc(-c2cc(C(=O)O)nn2-c2ccc(Cl)c(Cl)c2)cc1 ; param system: Replication protein A 70 kDa DNA-binding subunit (Homo sapiens); output Kd: 79

Known value: Replication protein A 70 kDa DNA-binding subunit (Homo sapiens) Kd of the molecule Nc1ccc(-c2cc(C(=O)O)nn2-c2ccc(Cl)c(Cl)c2)cc1 equals 227

# Kd measured on Replication protein A 70 kDa DNA-binding subunit (Homo sapiens) for item O=C(O)c1cc(-c2cccc(CNCc3ccc(-c4ccc(C(=O)O)o4)cc3)c2)n(-c2ccc(Cl)c(Cl)c2)n1 = 57

The reported Kd value, Replication protein A 70 kDa DNA-binding subunit (Homo sapiens), for O=C(NCc1ccc(-c2ccc(C(=O)O)o2)cc1)c1cccc(-c2cc(C(=O)O)nn2-c2ccc(Cl)c(Cl)c2)c1 reads 22

Form field, Kd with Replication protein A 70 kDa DNA-binding subunit (Homo sapiens), item Cc1cccc(-c2cc(C(=O)O)nn2-c2ccc(Cl)c(Cl)c2)c1 : 90

Record COc1ccc(CNC(=O)c2ccc(-c3cc(C(=O)O)nn3-c3ccc(Cl)c(Cl)c3)cc2)cc1 / Replication protein A 70 kDa DNA-binding subunit (Homo sapiens), Kd recorded as 45

Measured on Replication protein A 70 kDa DNA-binding subunit (Homo sapiens), O=C(NCc1ccccc1)c1ccc(-c2cc(C(=O)O)nn2-c2ccc(Cl)c(Cl)c2)cc1 has a documented Kd of 83

Entry O=C(O)c1ccc(-c2ccc(C(=S)NCc3ccc(-c4ccnn4-c4ccc(Cl)c(Cl)c4)cc3)c(Cl)c2)o1 : Kd on Replication protein A 70 kDa DNA-binding subunit (Homo sapiens) = 1.7

The reported Replication protein A 70 kDa DNA-binding subunit (Homo sapiens) Kd of N#Cc1ccc(-c2cc(C(=O)O)nn2-c2ccc(Cl)c(Cl)c2)cc1 is 310

Form field Kd for item O=C(O)c1cc(-c2ccc(CN3CCc4cc(-c5ccc(C(=O)O)o5)ccc4C3=S)cc2)n(-c2ccc(Cl)c(Cl)c2)n1 on Replication protein A 70 kDa DNA-binding subunit (Homo sapiens): 0.54

I looked up O=C(O)c1cc(-c2ccc(C(=S)NCc3ccccc3)cc2)n(-c2ccc(Cl)c(Cl)c2)n1 and its Kd for Replication protein A 70 kDa DNA-binding subunit (Homo sapiens) was 18

# value of Kd, Replication protein A 70 kDa DNA-binding subunit (Homo sapiens), item O=C(NCc1ccc(-c2cc(C(=O)O)nn2-c2ccc(Cl)c(Cl)c2)cc1)c1ccc(Br)cc1 = 35

Reading of Kd for NS(=O)(=O)c1ccc(C(=S)NCc2ccc(-c3cc(C(=O)O)nn3-c3ccc(Cl)c(Cl)c3)cc2)cc1 with Replication protein A 70 kDa DNA-binding subunit (Homo sapiens): 34

// Kd (Replication protein A 70 kDa DNA-binding subunit (Homo sapiens)) for COc1ccc(C(=O)NCc2ccc(-c3cc(C(=O)O)nn3-c3ccc(Cl)c(Cl)c3)cc2)cc1 = 72

====

Give measured inhibition for each item. Keep answers brief.
Target: Replication protein A 70 kDa DNA-binding subunit (Homo sapiens, UniProt P27694)
Sequence (P27694 whole entry): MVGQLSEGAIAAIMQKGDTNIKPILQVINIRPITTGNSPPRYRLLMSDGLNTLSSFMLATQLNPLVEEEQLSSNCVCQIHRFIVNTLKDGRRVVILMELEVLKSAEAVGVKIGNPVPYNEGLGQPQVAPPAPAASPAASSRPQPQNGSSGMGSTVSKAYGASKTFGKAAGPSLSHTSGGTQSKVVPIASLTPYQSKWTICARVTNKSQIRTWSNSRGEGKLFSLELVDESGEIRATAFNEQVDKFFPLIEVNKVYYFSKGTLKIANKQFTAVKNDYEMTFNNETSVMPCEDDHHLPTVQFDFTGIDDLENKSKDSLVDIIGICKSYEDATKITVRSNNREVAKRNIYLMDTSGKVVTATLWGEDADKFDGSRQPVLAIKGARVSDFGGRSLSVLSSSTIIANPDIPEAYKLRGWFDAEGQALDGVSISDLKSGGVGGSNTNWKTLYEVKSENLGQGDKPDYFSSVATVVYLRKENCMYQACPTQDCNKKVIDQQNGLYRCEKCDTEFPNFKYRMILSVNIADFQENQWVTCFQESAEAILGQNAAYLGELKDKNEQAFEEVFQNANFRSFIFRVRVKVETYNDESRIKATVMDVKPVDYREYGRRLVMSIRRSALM
Conditions: at 500 µM
Description: Displacement of FITC-ATRIP/FITC-ATRIP2 peptide probe from RPA70N protein (unknown origin) at 500 uM incubated for 1 hr by fluorescence polarization anisotropy assay
Supply the numeric figure in %, leaving out any unit text.

Just so you know, measured inhibition for COc1ccc(-c2cc(C(=O)O)nn2C2CCCCC2)cc1 came out at 9

The compound listed as COc1ccc(-c2cc(C(=O)O)nn2-c2cccc(C)c2)cc1 has a reported inhibition of 20

Given item COc1ccc(-n2nc(C(=O)O)cc2-c2ccccc2)cc1 , the value recorded as its inhibition is 18

Consider COc1ccc(-c2cc(C(=O)O)nn2-c2cccc(Cl)c2)cc1 . Its measured inhibition is 35

The compound COc1ccc(-c2cc(C(=O)O)nn2-c2ccc(C)cc2)cc1 showed inhibition equal to 15

Lookup result for COc1ccc(-c2cc(C(=O)O)nn2-c2ccc(Cl)cc2)cc1 ; measured inhibition: 19

So, COc1ccc(-c2cc(C(=O)O)nn2-c2ccc(Br)cc2)cc1 ? Its inhibition was 24
